tested on: Mus musculus; test: Tested in vivo for antagonistic activity against antinociceptive effect of icv-administered DPDPE in mice at 24 hr; type: functional
Could you please report measured ED50 ratio for the items listed next?
Field format: numeric only.

Query :: Form field: reported ED50 ratio of Oc1ccc2c3c1O[C@H]1c4c(c5ccccc5n4Cc4cccc(N=C=S)c4)C[C@@]4(O)C(C2)N(CC2CC2)CCC314 (stereo not given in full)
Result :: 3.5

Query :: Sample Oc1ccc2c3c1O[C@H]1c4c(c5ccccc5n4Cc4ccccc4N=C=S)C[C@@]4(O)C(C2)N(CC2CC2)CCC314 (stereo not given in full) — what was its ED50 ratio?
Result :: 19.4

Query :: Consider the compound Oc1ccc2c3c1O[C@H]1c4c(c5ccccc5n4Cc4ccc(N=C=S)cc4)C[C@@]4(O)C(C2)N(CC2CC2)CCC314 (stereo not given in full) and give its measured ED50 ratio.
Result :: 2.5

Query :: Suppose we examine the compound Oc1ccc2c3c1O[C@H]1c4c(c5ccccc5n4Cc4ccccc4)C[C@@]4(O)C(C2)N(CC2CC2)CCC314 (stereo not given in full) ; what ED50 ratio value has been reported?
Result :: 1.5

Query :: Which ED50 ratio is listed for O=C(CBr)Nc1cccc(Cn2c3c(c4ccccc42)C[C@@]2(O)C4Cc5ccc(O)c6c5C2(CCN4CC2CC2)[C@H]3O6)c1 (stereo not given in full) ?
Result :: 2.8

###

Measured Endpoint: Ki

Query :: Kindly state the measured Ki obtained for Oc1ccc2c3c1O[C@H]1c4c(c5ccccc5n4Cc4ccccc4N=C=S)C[C@@]4(O)C(C2)N(CC2CC2)CCC314 (some centres undefined) with Kappa-type opioid receptor (Cavia porcellus).
Sequence (P41144 whole entry): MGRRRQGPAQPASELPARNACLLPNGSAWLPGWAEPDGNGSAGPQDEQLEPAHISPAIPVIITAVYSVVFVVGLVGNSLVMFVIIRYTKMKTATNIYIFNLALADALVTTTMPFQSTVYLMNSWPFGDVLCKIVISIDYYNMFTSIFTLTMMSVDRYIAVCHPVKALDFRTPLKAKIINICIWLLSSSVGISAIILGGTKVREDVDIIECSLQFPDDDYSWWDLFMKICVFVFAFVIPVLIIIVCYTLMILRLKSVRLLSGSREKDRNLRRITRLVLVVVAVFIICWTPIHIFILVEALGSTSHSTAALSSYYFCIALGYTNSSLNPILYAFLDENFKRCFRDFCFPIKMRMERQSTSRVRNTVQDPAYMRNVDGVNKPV
Result :: 615 nM

Query :: Observed Ki on Kappa-type opioid receptor (Cavia porcellus) for Oc1ccc2c3c1O[C@H]1c4c(c5ccccc5n4Cc4cccc(N=C=S)c4)C[C@@]4(O)C(C2)N(CC2CC2)CCC314 (some centres undefined) , please.
Result :: 104 nM

Query :: Given the entry O=C(CBr)Nc1cccc(Cn2c3c(c4ccccc42)C[C@@]2(O)C4Cc5ccc(O)c6c5C2(CCN4CC2CC2)[C@H]3O6)c1 (some centres undefined) , what Ki was observed with Kappa-type opioid receptor (Cavia porcellus)?
Result :: 8.8 nM

Query :: Recorded Ki for Oc1ccc2c3c1O[C@H]1c4c(c5ccccc5n4Cc4ccc(N=C=S)cc4)C[C@@]4(O)C(C2)N(CC2CC2)CCC314 (some centres undefined) with Kappa-type opioid receptor (Cavia porcellus), please?
Result :: 245 nM

###

target: Delta-type opioid receptor (Mus musculus) (UniProt P32300); assay: Antagonistic activity against opioid delta receptor in mouse vas deferens after 30 min. IC50 ratio determined without washing (prewash).; format: functional
Sequence (P32300 whole entry): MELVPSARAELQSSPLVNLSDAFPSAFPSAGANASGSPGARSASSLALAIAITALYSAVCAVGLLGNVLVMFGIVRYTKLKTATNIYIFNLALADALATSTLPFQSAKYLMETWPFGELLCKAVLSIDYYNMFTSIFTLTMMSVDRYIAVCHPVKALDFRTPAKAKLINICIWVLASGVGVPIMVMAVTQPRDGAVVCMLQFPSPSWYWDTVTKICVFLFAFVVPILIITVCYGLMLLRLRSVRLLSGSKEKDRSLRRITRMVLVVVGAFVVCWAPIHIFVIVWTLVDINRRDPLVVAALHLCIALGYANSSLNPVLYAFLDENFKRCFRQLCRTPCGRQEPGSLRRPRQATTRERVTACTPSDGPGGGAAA
Measured Endpoint: IC50 ratio
Lab note: write the figure by itself, no unit.

Query :: # get_value(readout='IC50 ratio', item= Oc1ccc2c3c1O[C@H]1c4c(c5ccccc5n4Cc4ccccc4)C[C@@]4(O)C(C2)N(CC2CC2)CCC314 (some centres undefined) )
Result :: 208

Query :: Given O=C(CBr)Nc1cccc(Cn2c3c(c4ccccc42)C[C@@]2(O)C4Cc5ccc(O)c6c5C2(CCN4CC2CC2)[C@H]3O6)c1 (some centres undefined) , state its recorded IC50 ratio.
Result :: 511

Query :: Suppose we examine the molecule O=C(CBr)Nc1ccc(Cn2c3c(c4ccccc42)C[C@@]2(O)C4Cc5ccc(O)c6c5C2(CCN4CC2CC2)[C@H]3O6)cc1 (some centres undefined) ; what IC50 ratio value has been reported?
Result :: 30

Query :: What value of measured IC50 ratio is listed for O=C(CBr)Nc1ccccc1Cn1c2c(c3ccccc31)C[C@@]1(O)C3Cc4ccc(O)c5c4C1(CCN3CC1CC1)[C@H]2O5 (some centres undefined) ?
Result :: 35
